Listed here: items and their measured Fold shift (HGF).
# experimental_system: T1, human c-Met (HGFR), full length, on the cell surface (human, UniProt P08581 25-1390)
# T1 construct: Endogenous c-Met on human tumor cell lines MKN45, NCI-H596, PC-3 and HepG2; also called hepatocyte growth factor receptor; mesenchymal-epithelial transition factor
# T1 sequence (P08581 25-1390 limits assumed): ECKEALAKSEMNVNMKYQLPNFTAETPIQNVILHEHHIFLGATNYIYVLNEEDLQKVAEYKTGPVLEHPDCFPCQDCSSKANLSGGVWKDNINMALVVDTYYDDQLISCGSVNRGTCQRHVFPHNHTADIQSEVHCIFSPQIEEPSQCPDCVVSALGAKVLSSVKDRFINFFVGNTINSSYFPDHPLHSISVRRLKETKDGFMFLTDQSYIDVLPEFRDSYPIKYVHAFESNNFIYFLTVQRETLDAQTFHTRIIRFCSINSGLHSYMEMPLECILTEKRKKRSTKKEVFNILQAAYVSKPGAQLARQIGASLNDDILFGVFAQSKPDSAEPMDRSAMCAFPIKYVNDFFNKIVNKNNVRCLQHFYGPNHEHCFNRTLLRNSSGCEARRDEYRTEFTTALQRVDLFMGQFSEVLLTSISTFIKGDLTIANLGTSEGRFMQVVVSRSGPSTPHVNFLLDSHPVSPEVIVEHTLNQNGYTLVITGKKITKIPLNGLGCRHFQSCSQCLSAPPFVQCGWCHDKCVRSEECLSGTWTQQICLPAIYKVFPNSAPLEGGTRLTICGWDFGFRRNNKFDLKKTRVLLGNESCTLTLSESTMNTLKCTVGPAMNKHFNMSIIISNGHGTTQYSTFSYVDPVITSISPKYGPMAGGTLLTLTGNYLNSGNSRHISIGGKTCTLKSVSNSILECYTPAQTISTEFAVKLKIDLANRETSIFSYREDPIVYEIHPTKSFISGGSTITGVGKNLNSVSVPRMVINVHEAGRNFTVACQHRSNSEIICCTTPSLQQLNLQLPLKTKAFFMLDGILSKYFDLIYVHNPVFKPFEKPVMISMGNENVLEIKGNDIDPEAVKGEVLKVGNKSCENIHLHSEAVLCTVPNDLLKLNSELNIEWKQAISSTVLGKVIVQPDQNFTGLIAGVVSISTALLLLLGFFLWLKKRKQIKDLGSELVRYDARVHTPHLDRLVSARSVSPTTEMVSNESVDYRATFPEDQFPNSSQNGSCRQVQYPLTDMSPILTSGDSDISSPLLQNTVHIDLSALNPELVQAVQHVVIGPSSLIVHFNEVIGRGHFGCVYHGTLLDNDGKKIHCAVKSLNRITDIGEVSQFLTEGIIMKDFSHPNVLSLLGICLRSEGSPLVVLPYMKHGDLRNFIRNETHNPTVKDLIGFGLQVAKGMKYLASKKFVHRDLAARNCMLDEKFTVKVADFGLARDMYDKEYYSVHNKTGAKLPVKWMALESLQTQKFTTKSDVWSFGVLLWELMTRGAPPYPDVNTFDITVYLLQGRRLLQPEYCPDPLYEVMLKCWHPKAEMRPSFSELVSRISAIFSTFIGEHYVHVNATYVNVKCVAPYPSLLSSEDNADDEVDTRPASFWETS
# assay_details: flow cytometry, PC-3 cells; EC50 with 50 ng/mL HGF against EC50 without HGF
Field format: number, assumed fold, no unit text.

Worked cases, answers included:
mAb2c (antibody, human IgG1, kappa, V domains shown, Humanized IgG1 kappa, HC-41C, from wt/41C-chi-mAb2; also called humanized HC-41C antibody mAb2c) VH: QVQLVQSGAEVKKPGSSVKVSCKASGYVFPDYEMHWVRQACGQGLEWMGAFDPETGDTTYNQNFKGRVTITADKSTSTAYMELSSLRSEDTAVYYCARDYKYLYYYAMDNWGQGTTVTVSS VL: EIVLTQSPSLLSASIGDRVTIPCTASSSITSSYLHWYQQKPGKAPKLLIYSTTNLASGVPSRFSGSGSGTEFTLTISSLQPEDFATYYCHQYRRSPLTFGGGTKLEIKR; 3.1
mAb3e (antibody, human IgG1, kappa, V domains shown, Humanized IgG1 kappa, HC-41C, from wt/41C-chi-mAb3; also called humanized HC-41C antibody mAb3e) VH: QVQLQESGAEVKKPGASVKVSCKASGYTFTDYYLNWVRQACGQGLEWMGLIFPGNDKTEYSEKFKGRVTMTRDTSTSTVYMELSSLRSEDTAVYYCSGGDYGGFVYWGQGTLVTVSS VL: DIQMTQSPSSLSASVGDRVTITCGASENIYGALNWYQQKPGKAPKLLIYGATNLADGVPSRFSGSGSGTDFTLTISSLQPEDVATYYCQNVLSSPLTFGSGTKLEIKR; 2.8
mAb3a (antibody, human IgG1, kappa, V domains shown, Humanized IgG1 kappa, HC-41C, from wt/41C-chi-mAb3; also called humanized HC-41C antibody mAb3a) VH: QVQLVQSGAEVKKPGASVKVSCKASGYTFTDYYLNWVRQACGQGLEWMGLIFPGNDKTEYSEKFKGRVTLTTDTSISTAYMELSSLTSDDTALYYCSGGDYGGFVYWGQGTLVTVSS VL: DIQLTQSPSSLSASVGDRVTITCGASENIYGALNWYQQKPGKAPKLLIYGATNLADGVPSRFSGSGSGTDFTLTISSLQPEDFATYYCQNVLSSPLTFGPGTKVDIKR; 2.4
mAb3b (antibody, human IgG1, kappa, V domains shown, Humanized IgG1 kappa, HC-41C, from wt/41C-chi-mAb3; also called humanized HC-41C antibody mAb3b) VH: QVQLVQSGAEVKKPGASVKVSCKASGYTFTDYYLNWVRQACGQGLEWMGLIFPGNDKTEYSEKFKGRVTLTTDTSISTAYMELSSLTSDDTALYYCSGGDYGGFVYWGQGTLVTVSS VL: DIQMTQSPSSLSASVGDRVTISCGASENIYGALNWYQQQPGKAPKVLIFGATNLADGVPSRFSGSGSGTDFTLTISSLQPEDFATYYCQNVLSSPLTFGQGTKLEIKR; 2
mAb2b (antibody, human IgG1, kappa, V domains shown, Humanized IgG1 kappa, HC-41C, from wt/41C-chi-mAb2; also called humanized HC-41C antibody mAb2b) VH: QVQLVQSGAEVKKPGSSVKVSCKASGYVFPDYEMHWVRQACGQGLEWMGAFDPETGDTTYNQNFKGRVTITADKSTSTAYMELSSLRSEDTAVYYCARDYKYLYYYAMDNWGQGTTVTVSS VL: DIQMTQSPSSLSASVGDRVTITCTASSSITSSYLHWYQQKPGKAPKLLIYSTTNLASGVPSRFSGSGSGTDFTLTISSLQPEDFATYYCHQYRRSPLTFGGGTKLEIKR; 2.6

# Fold shift (HGF) lookup, item mAb3d (antibody, human IgG1, kappa, V domains shown, Humanized IgG1 kappa, HC-41C, from wt/41C-chi-mAb3; also called humanized HC-41C antibody mAb3d) VH: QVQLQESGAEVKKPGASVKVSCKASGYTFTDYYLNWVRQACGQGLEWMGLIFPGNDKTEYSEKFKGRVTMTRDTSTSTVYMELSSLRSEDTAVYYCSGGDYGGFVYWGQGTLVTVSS VL: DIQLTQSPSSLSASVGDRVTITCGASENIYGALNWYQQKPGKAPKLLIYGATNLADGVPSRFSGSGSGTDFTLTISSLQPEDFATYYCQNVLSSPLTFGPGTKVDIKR
2.7

# Fold shift (HGF) lookup, item mAb1a (antibody, human IgG1, kappa, V domains shown, Humanized IgG1 kappa, HC-41C, from wt/41C-chi-mAb1; also called humanized HC-41C antibody mAb1a; mAbla) VH: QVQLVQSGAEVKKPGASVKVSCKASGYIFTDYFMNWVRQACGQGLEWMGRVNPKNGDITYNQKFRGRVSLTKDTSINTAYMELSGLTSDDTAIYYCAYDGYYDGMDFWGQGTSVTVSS VL: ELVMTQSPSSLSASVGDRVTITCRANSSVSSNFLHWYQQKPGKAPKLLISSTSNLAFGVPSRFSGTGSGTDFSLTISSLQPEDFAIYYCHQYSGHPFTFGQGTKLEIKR
1.9
